Data provenance: patent US20220204601A1

Here, each record is paired with measured Absorbance at 450nm at 0.03ug/well data.
- subject-of-test: T1, K280-ac protein fragment (human)
- T1 construct: also called mAC
- T1 peptide: VQIINK(Ac)KLDLSN
- assay-remarks: ELISA on K280-ac coated at 250 ng/well, HRP anti-human IgG
Ends that are not written are not given here.

Some solved entries appear below for comparison.
>  <binder>
ADEL-Y01h v02 antibody (antibody, V domains shown, Humanized antibody; It was detected with anti-human IgG; also called Y01h01v02) VH: EVQLQESGPGLVKPSQTLSLTCTVSGDSITSGYWNWIRQPPGKGLEYIGYIRYSGRTYYNPSLKSRVTISRDTSKNQFSLKLSSVTAADTAVYYCASVYFTYWGQGTLVTVSS VL: DVVMTQSPDSLAVSLGERATINCKSSQSLLDSDGKTYLNWYQQKPGQSPKRLISLVSKLDSGVPDRFSGSGSGTDFTLTISSLQAEDVAVYYCWQGSHFPYTFGQGTKLEIK

>  <readout-kind>
Absorbance at 450nm at 0.03ug/well

>  <measured>
0.203

$$$$
>  <binder>
ADEL-Y01h v10 antibody (antibody, V domains shown, Humanized antibody; It was detected with anti-human IgG; also called Y01h01v10) VH: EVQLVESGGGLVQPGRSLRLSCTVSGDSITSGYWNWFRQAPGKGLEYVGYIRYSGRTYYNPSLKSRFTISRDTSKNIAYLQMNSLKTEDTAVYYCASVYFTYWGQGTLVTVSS VL: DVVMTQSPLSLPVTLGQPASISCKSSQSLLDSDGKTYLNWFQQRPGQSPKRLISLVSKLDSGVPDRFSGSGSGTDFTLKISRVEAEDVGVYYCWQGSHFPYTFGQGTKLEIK

>  <readout-kind>
Absorbance at 450nm at 0.03ug/well

>  <measured>
0.997

$$$$

Here is the next item to consider.
Give Absorbance at 450nm at 0.03ug/well for ADEL-Y01h v08 antibody (antibody, V domains shown, Humanized antibody; It was detected with anti-human IgG; also called Y01h01v08) VH: EVTLKESGPTLVKPTQTLTLTCTVSGDSITSGYWNWIRQPPGKALEYLAYIRYSGRTYYNPSLKSRLTITRDTSKNQVVLTMTNMDPVDTATYYCASVYFTYWGQGTLVTVSS VL: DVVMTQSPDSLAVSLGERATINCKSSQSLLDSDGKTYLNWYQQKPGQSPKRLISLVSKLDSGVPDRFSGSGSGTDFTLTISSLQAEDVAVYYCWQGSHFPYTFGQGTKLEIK 0.041
